These data points were gathered from PubChem BioAssay AID1159580.

# ASSAY COMMENT: chemical genetic growth profiling, strain panel (AID 1159580);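 further: tested at 20 µM; growth read once vehicle control cultures reached saturation at 30 °C; 1 = growth at the plate median or of vehicle wells; lower values mean less growth of the strain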
# MEASUREMENT PARAMETERS: S. cerevisiae deletion strains, growth OD, locus YHR030C, strain SLT2, stronger effect = lower value
The whole screen tested about 5,500 compounds, of which about 2,000 (36%) were called active. Another 18% or so got no clear call; they are omitted. Some of the results follow.
RECORDED METRIC: normalized growth

[in] What measured normalized growth goes with `COC(=O)c1cc([N+](=O)[O-])ccc1N1CCOCC1` ?
[out] 1.09 (inactive)

[in] What measured normalized growth goes with `COc1ccc(-c2oc3ccccc3c(=O)c2O)cc1OC` ?
[out] 1.01 (inactive)

[in] What measured normalized growth goes with `CN(C)C(=N)N=C(N)N` ?
[out] 1.02 (inactive)

[in] What measured normalized growth goes with `CN(C(=O)Nc1ccccc1)n1cnc2ccccc2c1=O` ?
[out] 1.01 (inactive)

[in] What measured normalized growth goes with `CCOc1ccc(C(=O)c2ccc(OC)c(O)c2O)cc1` ?
[out] 0.892 (inactive)

[in] What measured normalized growth goes with `CCOc1ccc(C(=O)c2ccc(O)c(O)c2O)cc1` ?
[out] 0.824 (active)

[in] What measured normalized growth goes with `Cc1ccc(N=Cc2cccs2)cc1Cl` ?
[out] 1.04 (inactive)

[in] What measured normalized growth goes with CC(=O)Oc1cc2c(c(C)c1OC(C)=O)CC1OC13C2(C)CCC1(C)C2CC(C)(C(=O)O)CCC2(C)CCC13C (stereo not drawn) ?
[out] 1.02 (inactive)

[in] What measured normalized growth goes with CC(=O)O[C@H]1CC[C@]2(C)C3CC[C@@]4(C)C(CC5O[C@@]6(CCC(C)CO6)[C@@H](C)C54)C3CC[C@H]2C1 (stereo partly drawn) ?
[out] 0.978 (inactive)

[in] What measured normalized growth goes with `CSc1nc(N)nc(N2CCCCC2)n1` ?
[out] 0.951 (inactive)

[in] What measured normalized growth goes with `COC(=O)[C@]1(C)CC[C@]2(C)CC[C@]3(C)C4=CC=C5C(=CC(=O)C(O)=C5C)[C@]4(C)CC[C@@]3(C)[C@@H]2C1` ?
[out] 0.736 (active)

[in] What measured normalized growth goes with `COc1ccc(C(=O)c2ccccc2)c(O)c1O` ?
[out] 0.979 (inactive)

[in] What measured normalized growth goes with CC(=O)O[C@@H]1CC[C@]2(C)C3CC[C@]4(C)C(=O)CCC4C3CC[C@H]2C1 (stereo partly drawn) ?
[out] 0.999 (inactive)

[in] What measured normalized growth goes with OC(CSc1ccccc1)CN1CCN(c2ccc(C(F)(F)F)cn2)CC1 (stereo not drawn) ?
[out] 0.203 (active)

[in] What measured normalized growth goes with `N#Cc1nccnc1Sc1ccc(Cl)cc1` ?
[out] 0.537 (active)

[in] What measured normalized growth goes with `O1[As]2O[As]3O[As]1O[As](O2)O3` ?
[out] 0.959 (inactive)

[in] What measured normalized growth goes with CNS(=O)(=O)c1cc(Br)ccc1S(=O)c1ccccc1C(=O)O (stereo not drawn) ?
[out] 0.98 (inactive)

[in] What measured normalized growth goes with CC(=O)OC1CCC2(C)C3CC(=O)C4(C)C(CC5OC6(CCC(C)CO6)[C@@H](C)C54)C3CC[C@H]2C1 (stereo partly drawn) ?
[out] 0.977 (inactive)

[in] What measured normalized growth goes with `Cn1c(=O)c(-c2ccccc2)c(O)c2ccccc21` ?
[out] 0.533 (active)

[in] What measured normalized growth goes with OC(CSc1ccccc1)CN1CCN(c2nc(-c3ccccc3)ns2)CC1 (stereo not drawn) ?
[out] 0.941 (inactive)

[in] What measured normalized growth goes with `c1ccc2c(Cc3c[nH]c4ccccc34)c[nH]c2c1` ?
[out] 0.428 (active)

[in] What measured normalized growth goes with `COc1cc([N+](=O)[O-])ccc1N1CCCC1` ?
[out] 0.302 (active)

[in] What measured normalized growth goes with `OCc1c[nH]c2ccccc12` ?
[out] 1.02 (inactive)
